Recorded cytotoxicity at 10 µM by entry
# METHOD: Toxicity liver stage against HepG2, at 10uM
# Format: cell-based
# Set-up: test concentration 10 uM, cell line HepG2-A16-CD81EGFP
# TEST_CONTEXT: human, HepG2-A16-CD81EGFP cells; read-out: INHIBITION
Report the figure in % without appending any unit label.

Reference set (8 entries):
CC(C(=O)NC1CCN(C)CC1)n1nc(C(F)(F)F)c(Cl)c1C1CC1 (configuration not stated); -8.17
Cc1cc(CN2CCCC2c2noc(C)n2)no1 (configuration not stated); 2.48
CCCc1cc(CN(C)C2CCSCC2)n[nH]1; -20.6
Cn1cc(NC(=O)Cc2cccs2)c(=O)n(C)c1=O; 0.393
CCc1ccc(C2COCCN2C(=O)NCc2cccc(C#N)c2)o1 (configuration not stated); -0.838
COC(CNC(=O)C1CCN(S(C)(=O)=O)CC1)c1ccc(C)s1 (configuration not stated); -0.0506
CN(C(=O)CSc1ncc[nH]1)c1ccccc1; 11.1
Cc1c(CS(C)(=O)=O)cccc1NCCCC1CCCC1; 17.5

[in] Please report the measured cytotoxicity at 10 µM for O=C(CCCNC(=O)C1CCCO1)Nc1ccc(Cl)cc1 (configuration not stated)
[out] 13.2

[in] Please report the measured cytotoxicity at 10 µM for CCNC(=O)NC(C)c1nc(-c2ccc(Br)cc2)no1 (configuration not stated)
[out] 14.7

[in] Please report the measured cytotoxicity at 10 µM for COC(=O)c1ccc(/C=C/c2ncc(C(=O)O)s2)cc1
[out] -7.11

[in] Please report the measured cytotoxicity at 10 µM for Cc1nn2c(NCC(N)=O)cc(-c3ccccc3)nc2c1C
[out] -10.5

###

# METHOD: Toxicity liver stage against HepG2, at 10uM
# Type: cell-based
# Set-up: test concentration 10 uM, cell line HepG2-A16-CD81EGFP
# TEST_CONTEXT: human, HepG2-A16-CD81EGFP cells; read-out: INHIBITION
Recorded cytotoxicity at 10 µM by entry
Report the figure in % without appending any unit label.

Reference set (4 entries):
CCOc1ccccc1CCC(=O)Nc1c(C)nn(C)c1C; -3.91
CC(C)N1CCCC(Cc2cncc(Br)c2)CC1 (stereo not drawn); -7.5
CCCN1CCC(N2CCC(Cn3cc(C4CC4)nn3)CC2)CC1; -1.98
NC(=O)C1CNCCN1C(=O)COc1ccccc1 (stereo not drawn); 1.6

Turning now to a further record.
[in] Please report the measured cytotoxicity at 10 µM for CC(C(=O)N(C)C)N1CCc2onc(-c3cccc(F)c3)c2C1 (stereo not drawn)
[out] -6.93

###

Recorded cytotoxicity at 10 µM by entry
# METHOD: Toxicity liver stage against HepG2, at 10uM
# Assay type: cell-based
# Design: test concentration 10 uM, cell line HepG2-A16-CD81EGFP
# TEST_CONTEXT: human, HepG2-A16-CD81EGFP cells; read-out: INHIBITION
Report the figure in % without appending any unit label.

CCCNS(=O)(=O)Cc1ccc(Br)cc1; -4.81
COCC1CN(Cc2c(C)noc2C)Cc2cn(C)nc21 (configuration not stated); 13.2
CN1C[C@@H]2CC[C@H]1CN(C(=O)COCc1nc3ccc(F)cc3[nH]1)C2; -1.88
COC(=O)c1ccc(N2CCC(c3ccccc3)CC2)nn1; -3.59
COCCNC(=O)[C@H]1CN(Cc2csc(C)n2)C[C@H]2OCC[C@@H]12; 9.9
O=C(Cn1cccnc1=O)NC(Cc1ccsc1)c1cccnc1 (configuration not stated); -25.7
CN(Cc1nnc(C2CC2)n1C)C1CCN(Cc2ccncc2)C1 (configuration not stated); -10.3
CCCc1nccn1CCn1cnc2ccsc2c1=O; 0.0394

[in] Please report the measured cytotoxicity at 10 µM for Cc1ccc(F)c(S(=O)(=O)NCc2cccc(CS(C)(=O)=O)c2)c1
[out] -7.61

[in] Please report the measured cytotoxicity at 10 µM for COCCOc1ccc(NC(=O)N(CCO)C2CC2)cn1
[out] -2.77

[in] Please report the measured cytotoxicity at 10 µM for Cc1nc2c(NC(CC(C)(C)C)c3cccnc3)ncnc2o1 (configuration not stated)
[out] 4.24

[in] Please report the measured cytotoxicity at 10 µM for CCn1nc(C)c2nc(C(C)C)nc(NCC(=O)N3CCOCC3)c21
[out] 3.07

###

Recorded cytotoxicity at 10 µM by entry
# METHOD: Toxicity liver stage against HepG2, at 10uM
# Format: cell-based
# Set-up: test concentration 10 uM, cell line HepG2-A16-CD81EGFP
# TEST_CONTEXT: human, HepG2-A16-CD81EGFP cells; read-out: INHIBITION

Reference set (3 entries):
Cc1cc(N2CCOC(c3ccncn3)C2)ncn1 (configuration not stated); 2.91%
COc1ccc(O[C@H]2COCCN(C(=O)c3ccno3)C2)cc1; -2.41%
Cc1cnc(C)c(N2CCCC(CC3CC3)(C(=O)O)C2)n1 (configuration not stated); -6.09%

[in] Please report the measured cytotoxicity at 10 µM for CN1CCN(c2cc(CNC(=O)c3ccc(=O)[nH]n3)ccn2)CC1
[out] -15%

[in] Please report the measured cytotoxicity at 10 µM for CC(CNC(=O)NCc1ccsc1)CC1(C)OCCO1 (configuration not stated)
[out] 1.24%

[in] Please report the measured cytotoxicity at 10 µM for Cc1noc(C(C)N2CCN(CC(=O)N3CCCC3)CC2)n1 (configuration not stated)
[out] 0.678%

[in] Please report the measured cytotoxicity at 10 µM for CC(C1CC1)N(C)Cc1nnc(-c2ccc(Br)s2)o1 (configuration not stated)
[out] -11.2%

[in] Please report the measured cytotoxicity at 10 µM for c1ccc(CCN2CCN(C3CCOC4(CCOCC4)C3)CC2)cc1 (configuration not stated)
[out] -3.79%

[in] Please report the measured cytotoxicity at 10 µM for O=C(OCCNc1ncccn1)c1ccc(Br)s1
[out] -2.64%

[in] Please report the measured cytotoxicity at 10 µM for Cc1nn(C)c(Cl)c1C1CCCN1Cc1cccc(C(N)=O)c1 (configuration not stated)
[out] -6.22%

[in] Please report the measured cytotoxicity at 10 µM for CCS(=O)(=O)N1CCCn2nnc(CNC(C)=O)c2C1
[out] -113%

###

Recorded cytotoxicity at 10 µM by entry
# METHOD: Toxicity liver stage against HepG2, at 10uM
# Format: cell-based
# Parameters: test concentration 10 uM, cell line HepG2-A16-CD81EGFP
# TEST_CONTEXT: human, HepG2-A16-CD81EGFP cells; read-out: INHIBITION
Report the figure in % without appending any unit label.

Reference set (5 entries):
CN(CC1CC1)c1ccc2ccc(C(=O)NCCc3ccccc3)cn12; -1.83
CCN1CCN(C(=O)c2[nH]c3ccccc3c2Cl)[C@H]2CS(=O)(=O)C[C@H]21; -5.41
O=C(NC1CC1)[C@H]1C[C@H]2OCC[C@H]2N(CC2CCOCC2)C1; 2.98
O=C(O)c1cc2c(nc1N1CCCC1)CCN(C1CCOCC1)CC2; 3.02
COC(=O)NCCCn1ccnc1-c1ccccc1; -2.27

[in] Please report the measured cytotoxicity at 10 µM for Cc1ccc(NS(=O)(=O)c2cnn(Cc3ccccc3)c2)c(C(=O)O)c1
[out] -2.41

[in] Please report the measured cytotoxicity at 10 µM for COc1ccc(-c2nc(CN3CCc4c(ncn4C)C3)cs2)cc1
[out] 3

[in] Please report the measured cytotoxicity at 10 µM for CCc1[nH]n(C)c(=N)c1-c1ccc2c(c1)OCO2
[out] -45.1

[in] Please report the measured cytotoxicity at 10 µM for Cc1nc(C2CCCN(C(=O)c3ccncc3)C2)c2sccn12 (stereo unspecified)
[out] -10.4

[in] Please report the measured cytotoxicity at 10 µM for Cc1ccnc(N2CCN(C[C@]3(O)CCCN4CCCC[C@@H]43)CC2)c1
[out] 3.78

[in] Please report the measured cytotoxicity at 10 µM for COC(=O)CCC(=O)N(Cc1ccc2cc[nH]c2c1)C1CC1
[out] -3.4

###

Recorded cytotoxicity at 10 µM by entry
# METHOD: Toxicity liver stage against HepG2, at 10uM
# Assay type: cell-based
# Parameters: test concentration 10 uM, cell line HepG2-A16-CD81EGFP
# TEST_CONTEXT: human, HepG2-A16-CD81EGFP cells; read-out: INHIBITION
Report the figure in % without appending any unit label.

Cc1cc(C)c(S(N)(=O)=O)cc1C(=O)NCC1Cc2ccccc2O1 (configuration not stated); -4.53
CNC(=O)C(C)(C)N(C)C(=O)c1cc(COc2ccccc2OC)[nH]n1; -5.12
Cc1noc(C)c1CNC(=O)N1CCC(NS(C)(=O)=O)CC1; -9.41
CCNc1ncc(CN2C[C@@H](C(=O)O)[C@H](C3CC3)C2)cn1; -46.1
CCNc1cc2c(nn1)CCN(C(=O)c1cccc(CSC)c1)C2; -12.7

[in] Please report the measured cytotoxicity at 10 µM for O=C(Nc1cccnc1-n1cc(Cl)cn1)C1CC1
[out] -42.7

[in] Please report the measured cytotoxicity at 10 µM for Cn1ccc(CN2CCCC2c2ccc3c(c2)OCCCO3)cc1=O (configuration not stated)
[out] -4.2

[in] Please report the measured cytotoxicity at 10 µM for O=C(c1cccn1Cc1cccs1)N1CCC(C(=O)N2CCCC2)CC1
[out] -1.23

[in] Please report the measured cytotoxicity at 10 µM for Cc1cccc(CC2CCCN(C(=O)Cc3csc(C)n3)C2)n1 (configuration not stated)
[out] -26.5

[in] Please report the measured cytotoxicity at 10 µM for COc1ccc(OC)c(CN2CCCCCC2c2cccs2)c1 (configuration not stated)
[out] -5

[in] Please report the measured cytotoxicity at 10 µM for CC1(C)CN(S(=O)(=O)N2CCOCC2)CC1c1ccccc1 (configuration not stated)
[out] 1.69

[in] Please report the measured cytotoxicity at 10 µM for O=C(c1cnc(O)c(Cl)c1)N1CCCC(c2nccs2)C1 (configuration not stated)
[out] 3.63
